- TESTED TARGET: T1, Anti-PSMA Fab (SEQ ID NOs: 19, 20)
- T1 construct: Biotinylated and captured on neutravidin coated plates in the phage ELISA; also called 006 PSMA Fab
- ASSAY PROCEDURE: phage binding ELISA; Fab-coated wells pre-incubated with PSMA antigen as competitor, anti-M13 HRP detection
Where no end group is shown, it is not given here.
REPORTED METRIC: Anti-PSMA Fab signal in the presence of PSMA
Number only, no unit.

[ask] Identify measured Anti-PSMA Fab signal in the presence of PSMA associated with VDHWCTPAWMCDGF (tested as clonal phage supernatant) [Phage-2047]
[reply] 0.106

[ask] Identify measured Anti-PSMA Fab signal in the presence of PSMA associated with FPQWCIPIWMCEHT (tested as clonal phage supernatant) [Phage-2052]
[reply] 0.065

[ask] Identify measured Anti-PSMA Fab signal in the presence of PSMA associated with MDHWCTPPWMCEGW (tested as clonal phage supernatant) [Phage-2042]
[reply] 0.0642

[ask] Identify measured Anti-PSMA Fab signal in the presence of PSMA associated with IDKWCIPMWMCEMS (tested as clonal phage supernatant) [Phage-2045]
[reply] 0.0708

[ask] Identify measured Anti-PSMA Fab signal in the presence of PSMA associated with EVKWCTPEWMCAFL (cysteine pairing not given here; also: fused to phage pIII, pIII sequence and linker not given here, tested as clonal phage supernatant) [Phage-2044]
[reply] 0.0578

[ask] Identify measured Anti-PSMA Fab signal in the presence of PSMA associated with VDKWCIPQWMCDDQ (tested as clonal phage supernatant) [Phage-2054]
[reply] 0.116

[ask] Identify measured Anti-PSMA Fab signal in the presence of PSMA associated with VVHWCIPEWMCERI (tested as clonal phage supernatant) [Phage-2053]
[reply] 0.098
